Assay: Cytotoxicity determination in HepG2.2.15 cells (CCK-8 cell viability)
Assay type: cell-based
Settings: human, 6 days treatment, CCK-8 assay, highest concentration 100 uM
Labelling field: enter Condition met if recorded CC50 at 6 days is less than 30 µM. Enter Condition not met if it equals or exceeds that cut-off.

molecule="COC(=O)C1=C(CN2CC(F)(F)[C@H]3[C@@H]2CN(C(C)=O)N3CCC(C)(C)C(=O)O)NC(c2nccs2)=N[C@H]1c1ccc(F)c(F)c1Cl (single isomer, unassigned) [Compound 79B]" classification="Condition not met"
molecule="CCOC(=O)C1=C(CN2CC(F)(F)[C@H]3[C@@H]2CCN3C2CC(C(=O)O)C2)NC(c2nccs2)=N[C@H]1c1cccc(F)c1C (relative stereo) [Compound 39A]" classification="Condition not met"
molecule="COC(=O)C1=C(CN2CC(F)(F)[C@@H]3[C@H]2CN(C(C)=O)N3CCC(C)(C)C(=O)O)NC(c2nccs2)=N[C@H]1c1cccc(F)c1Cl (single isomer, unassigned) [Compound 84A]" classification="Condition not met"
molecule="CCOC(=O)C1=C(CN2CC(F)(F)[C@H]3[C@@H]2CN(C(C)=O)N3CCC(C)(C)C(=O)O)NC(c2nccs2)=N[C@@H]1c1ccc(F)c(F)c1C (single isomer, unassigned) [Compound 80B]" classification="Condition met"
molecule="CCOC(=O)C1=C(CN2CC(F)(F)[C@H]3[C@@H]2CCN3CC(C)(C)C(=O)O)NC(c2nccs2)=N[C@@H]1c1ccc(F)nc1C (single isomer, unassigned)" classification="Condition not met"
molecule="CCOC(=O)C1=C(CN2CC(F)(F)[C@H]3[C@@H]2CC(=O)N3[C@H]2CC[C@H](C(=O)O)CC2)NC(c2nccs2)=N[C@H]1c1cccc(F)c1C (single isomer, unassigned) [Compound 158B]" classification="Condition met"
molecule="CCOC(=O)C1=C(CN2CC(F)(F)[C@H]3[C@@H]2CC(=O)N3[C@H]2CC[C@@H](C(=O)O)CC2)NC(c2nccs2)=N[C@H]1c1cccc(F)c1C (single isomer, unassigned) [Compound 158A]" classification="Condition met"
molecule="CCOC(=O)C1=C(CN2CC(F)(F)[C@H]3[C@@H]2CCN3CCC(C)(C)C(=O)O)NC(c2nccs2)=N[C@@H]1c1ccc(F)c(F)c1F (single isomer, unassigned)" classification="Condition not met"
